measured on: C-X-C chemokine receptor type 4 (Homo sapiens, UniProt P61073)
Sequence (P61073 whole entry): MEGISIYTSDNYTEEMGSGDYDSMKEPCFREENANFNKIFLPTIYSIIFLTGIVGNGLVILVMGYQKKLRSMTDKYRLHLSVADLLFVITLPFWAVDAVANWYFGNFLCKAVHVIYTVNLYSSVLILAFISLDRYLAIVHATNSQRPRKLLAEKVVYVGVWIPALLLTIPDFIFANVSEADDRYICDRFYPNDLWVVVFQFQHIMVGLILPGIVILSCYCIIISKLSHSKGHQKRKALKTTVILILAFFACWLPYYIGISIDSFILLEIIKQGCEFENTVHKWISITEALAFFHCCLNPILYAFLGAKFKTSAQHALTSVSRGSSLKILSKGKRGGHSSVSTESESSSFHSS
test method notes: Displacement of [125I]-CPCR4 from CXCR4 receptor in human Jurkat cells after 2 hrs by gamma counting
Type: cell-based
Each entry below carries its reported pIC50.
Entry type: numeric. Quantity: pIC50, the -log10 of concentration in molar units.

>>> experimental_result("CC(=O)NCCC[C@@H]1C(=O)N[C@@H](CCCNC(=N)N)C(=O)N[C@@H](Cc2ccc3ccccc3c2)C(=O)NCC(=O)N[C@H](Cc2ccc(O)cc2)C(=O)N1C")
7.22

Write down pIC50 measured for item CN1C(=O)[C@@H](Cc2ccc(O)cc2)NC(=O)CNC(=O)[C@H](Cc2ccc3ccccc3c2)NC(=O)[C@H](CCCNC(=N)N)NC(=O)[C@H]1CCCNC(=O)C[C@H](NC(=O)CCCCCNC(=O)CN1CCN(CC(=O)O)CCN(CC(=O)O)CCN(CC(=O)O)CC1)C(=O)NCCC[C@@H]1C(=O)N[C@@H](CCCNC(=N)N)C(=O)N[C@@H](Cc2ccc3ccccc3c2)C(=O)NCC(=O)N[C@H](Cc2ccc(O)cc2)C(=O)N1C
7.01

Where do the numbers come from? From ChEMBL document CHEMBL1949612.
